biological target: EPHB2 (UniProt P29323); test: phosphorylation enrichment, bacterial display (enrichment ratio); higher = better substrate or ligand; peptides without Tyr show the background;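 also: 11-residue human phosphosite peptides and single-mutation variants displayed on the E. coli surface, counted by deep sequencing, each peptide's frequency after selection divided by its frequency in the unselected input library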;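 also: frequency after pTyr selection over input frequency; kinase dosed for 20-30% of maximal phosphorylation in three min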
Sequence (P29323 whole entry, looked up): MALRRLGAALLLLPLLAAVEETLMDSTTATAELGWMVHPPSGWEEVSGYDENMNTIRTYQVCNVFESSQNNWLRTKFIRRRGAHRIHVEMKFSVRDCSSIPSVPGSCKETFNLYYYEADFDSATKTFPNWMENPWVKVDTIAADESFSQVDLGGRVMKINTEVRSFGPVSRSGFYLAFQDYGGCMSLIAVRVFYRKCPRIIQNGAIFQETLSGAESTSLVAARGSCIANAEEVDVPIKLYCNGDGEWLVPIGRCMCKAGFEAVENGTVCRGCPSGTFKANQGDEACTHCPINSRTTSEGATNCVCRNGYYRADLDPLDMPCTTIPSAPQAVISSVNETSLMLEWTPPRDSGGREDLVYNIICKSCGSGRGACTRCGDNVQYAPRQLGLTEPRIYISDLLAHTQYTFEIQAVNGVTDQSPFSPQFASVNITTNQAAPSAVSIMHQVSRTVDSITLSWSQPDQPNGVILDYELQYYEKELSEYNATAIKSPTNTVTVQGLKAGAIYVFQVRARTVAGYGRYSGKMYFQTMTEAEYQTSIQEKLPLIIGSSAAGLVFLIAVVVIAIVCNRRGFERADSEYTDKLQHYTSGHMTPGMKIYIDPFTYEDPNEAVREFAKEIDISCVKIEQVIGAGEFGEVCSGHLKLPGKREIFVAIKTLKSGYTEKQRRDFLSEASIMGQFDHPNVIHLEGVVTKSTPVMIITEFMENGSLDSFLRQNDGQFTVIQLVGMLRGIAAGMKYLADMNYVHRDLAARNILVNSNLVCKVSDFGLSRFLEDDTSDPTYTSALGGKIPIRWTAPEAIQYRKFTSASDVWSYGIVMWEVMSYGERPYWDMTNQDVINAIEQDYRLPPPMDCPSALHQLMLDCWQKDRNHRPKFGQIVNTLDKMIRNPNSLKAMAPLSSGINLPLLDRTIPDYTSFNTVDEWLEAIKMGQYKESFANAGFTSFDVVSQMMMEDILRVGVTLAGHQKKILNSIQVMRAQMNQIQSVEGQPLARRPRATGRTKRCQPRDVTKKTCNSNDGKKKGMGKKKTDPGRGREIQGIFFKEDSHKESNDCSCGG
outcome-measure: phosphorylation enrichment
Field format: numeric only.

sequence-text | value
RIAFQYGDTDL [MYBPC3_Y340_V342D] | 0.825

q: // lookup phosphorylation enrichment for CTTIHSNFMCN [TP53_Y234_Y234S_YF]
a: 0.555

q: Same thing, different sequence: TNLVPYTRIHF [TUBA1A_Y262_P263T]
a: 0.423

----------
tested on: AncSZ; test: phosphorylation enrichment, bacterial display (enrichment ratio); higher = better substrate or ligand; peptides without Tyr show the background
outcome-measure: phosphorylation enrichment
Field format: numeric only.

For orientation, consider the following solved cases.
sequence-text | phosphorylation enrichment
AEARMYGVLPW [PLP1_Y207_D203E] | 0.767
GDRPVYSEDEQ [CHST6_Y362_Y358D] | 1.54
FVTCTYSPALN [TP53_Y126_S121F] | 1.29

q: // lookup phosphorylation enrichment for HLVLNYGVCFC [JAK2_Y613_V617F]
a: 2.91

q: Same thing, different sequence: AGARMYGVLPW [PLP1_Y207_D203G]
a: 0.67

q: Same thing, different sequence: KAIMTYVPSFY [ACTN4_Y260_S262P]
a: 0.67

----------
molecular target: FGFR3 (UniProt P22607); assay: phosphorylation enrichment, bacterial display (enrichment ratio); higher = better substrate or ligand; peptides without Tyr show the background
Sequence (P22607 whole entry, looked up): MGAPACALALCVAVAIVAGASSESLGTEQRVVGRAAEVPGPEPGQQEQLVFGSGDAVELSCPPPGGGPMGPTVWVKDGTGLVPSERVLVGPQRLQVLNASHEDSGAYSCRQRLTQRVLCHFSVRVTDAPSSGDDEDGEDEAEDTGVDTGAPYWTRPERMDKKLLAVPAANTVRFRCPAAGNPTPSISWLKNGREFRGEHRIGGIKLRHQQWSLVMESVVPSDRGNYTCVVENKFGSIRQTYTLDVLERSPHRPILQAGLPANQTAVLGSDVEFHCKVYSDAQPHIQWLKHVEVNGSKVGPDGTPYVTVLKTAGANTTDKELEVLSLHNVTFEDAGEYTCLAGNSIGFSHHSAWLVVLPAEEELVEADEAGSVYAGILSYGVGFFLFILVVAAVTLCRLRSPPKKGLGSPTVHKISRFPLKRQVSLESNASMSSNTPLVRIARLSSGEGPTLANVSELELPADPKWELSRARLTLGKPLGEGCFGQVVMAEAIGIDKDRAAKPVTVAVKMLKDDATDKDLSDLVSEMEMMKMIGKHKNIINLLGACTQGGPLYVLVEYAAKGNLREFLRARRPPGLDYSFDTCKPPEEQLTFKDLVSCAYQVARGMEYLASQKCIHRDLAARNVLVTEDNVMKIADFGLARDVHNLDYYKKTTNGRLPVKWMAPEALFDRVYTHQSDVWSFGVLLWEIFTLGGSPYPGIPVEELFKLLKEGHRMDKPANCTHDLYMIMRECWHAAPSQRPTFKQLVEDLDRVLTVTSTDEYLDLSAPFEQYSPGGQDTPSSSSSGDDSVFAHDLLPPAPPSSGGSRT
Classification field: enter met for phosphorylation enrichment values not below 0.7, not met for values below it.

sequence-text | label-value
TKFRNYLIPNG [CYP2C8_Y379_K383N] | not met
IEDNEYTAREG [HCK_Y411] | met
QEMMEYRRQIQ [DES_Y324_H326R] | not met
GCKNRYDKGKP [THAP1_Y14_D17G] | met

q: Please check the record GHLFANDWISI [BEST1_Y227_Y227N_YF] and state if its phosphorylation enrichment is at or above 0.7.
a: not met

----------
target: EPHB1 (UniProt P54762); experiment: phosphorylation enrichment, bacterial display (enrichment ratio); higher = better substrate or ligand; peptides without Tyr show the background
Sequence (P54762 whole entry, looked up): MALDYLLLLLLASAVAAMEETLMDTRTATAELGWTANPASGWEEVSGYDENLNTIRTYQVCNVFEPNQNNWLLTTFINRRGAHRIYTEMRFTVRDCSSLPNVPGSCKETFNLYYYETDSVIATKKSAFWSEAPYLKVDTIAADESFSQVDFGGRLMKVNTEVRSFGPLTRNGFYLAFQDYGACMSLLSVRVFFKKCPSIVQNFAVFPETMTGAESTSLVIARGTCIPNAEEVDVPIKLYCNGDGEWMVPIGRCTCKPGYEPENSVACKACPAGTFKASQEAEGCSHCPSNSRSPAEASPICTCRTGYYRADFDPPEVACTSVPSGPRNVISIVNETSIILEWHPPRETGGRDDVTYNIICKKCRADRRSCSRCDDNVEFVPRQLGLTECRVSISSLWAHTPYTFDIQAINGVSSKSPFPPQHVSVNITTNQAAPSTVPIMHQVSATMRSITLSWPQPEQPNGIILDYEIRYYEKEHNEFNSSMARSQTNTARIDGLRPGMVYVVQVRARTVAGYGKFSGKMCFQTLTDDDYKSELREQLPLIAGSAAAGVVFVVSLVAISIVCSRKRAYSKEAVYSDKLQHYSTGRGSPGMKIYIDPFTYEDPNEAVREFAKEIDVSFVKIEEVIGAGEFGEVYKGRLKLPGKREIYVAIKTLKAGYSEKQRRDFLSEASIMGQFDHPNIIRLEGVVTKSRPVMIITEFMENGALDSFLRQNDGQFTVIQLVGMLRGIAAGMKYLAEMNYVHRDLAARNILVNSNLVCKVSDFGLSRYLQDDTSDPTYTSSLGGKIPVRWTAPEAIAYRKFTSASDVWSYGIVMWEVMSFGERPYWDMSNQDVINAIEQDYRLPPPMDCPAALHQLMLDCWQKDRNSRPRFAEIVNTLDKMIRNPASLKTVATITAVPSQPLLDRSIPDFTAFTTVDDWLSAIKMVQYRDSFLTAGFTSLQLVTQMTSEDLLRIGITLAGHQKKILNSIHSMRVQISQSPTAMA
Classification field: enter Criterion met for phosphorylation enrichment values not below 0.6, Criterion not met for values below it.

Recorded results for 2 sequences are shown here.
sequence-text | label-value
NAPNSYGRRPT [CDKN2A_Y44_I49T] | Criterion not met
SVVVPDEPPEV [TP53_Y220_Y220D] | Criterion met

q: Please check the record KNNDGNIDYAE [MCFD2_Y135_Y135N] and state if its phosphorylation enrichment is at or above 0.6.
a: Criterion not met

q: Same thing, different sequence: FSQQVYRVNLS [FAT4_Y480]
a: Criterion not met

q: Same thing, different sequence: RHIEKYVDQGK [IRAK3_Y61]
a: Criterion not met

q: Same thing, different sequence: LSIQCYLRASD [HMGCS2_Y262_L266S]
a: Criterion met

q: Same thing, different sequence: ICFSDYVEVAD [PHACTR1_Y525_R521C]
a: Criterion met

q: Same thing, different sequence: HSGIYYKPESL [L2HGDH_Y103]
a: Criterion met

q: Same thing, different sequence: DDERGYRRVRS [GIGYF2_Y268]
a: Criterion not met

q: Same thing, different sequence: GCKNRYDEDKP [THAP1_Y14_K16E]
a: Criterion not met

q: Same thing, different sequence: IEELTYVIKQD [STX5_Y137_I138V]
a: Criterion met
